# Tested on: SK-MEL-28 melanoma
# measurement-description: NCI tumour cell line growth inhibition, 48 h
metric-name: TGI

# count of solved cases: 5
{"columns": ["molecule", "metric-name", "assay-value"],
 "data": [
  ["Oc1c(C2=N[C@H]3CCCC[C@@H]3N2)ccc2ccccc12", "TGI", "> 100 µM"],
  ["CCCCCCCC/C=C\\CCCCCCCC(=O)NCCN(CCN)C(=O)CCCCCCC/C=C\\CCCCCCCC", "TGI", "> 100 µM"],
  ["Cc1cc(Cl)ccc1N=C1NC(=O)C(CC(=O)Nc2ccc(Cl)cc2Cl)S1 (stereo not drawn)", "TGI", "> 100 µM"],
  ["CC1C=CC(=O)C(n2cc(F)c(=O)[nH]c2=O)O1 (stereo not drawn)", "TGI", "46.8 µM"],
  ["O=c1oc2ccc3ccccc3c2cc1-c1nc2ccccc2o1", "TGI", "> 59.2 µM"]
]}

// for each molecule in input: emit TGI
1. CCC(=C/[C@H](C)C/C=C/C(C)=C/[C@@H](C)C(=O)[C@@H](C)[C@H](O)[C@@H](C)CC)/C=C/[C@H]1OC(=O)C=C[C@H]1C
2. Cc1c2c(n(Cc3ccccn3)c1C)NN=C(C#N)S2(=O)=O
3. CCOC(=O)CCC(NC(=O)c1ccc(Nc2nc3ccccc3nc2-c2cccs2)cc1)C(=O)OCC (stereo not drawn)
4. O=c1[nH]nc(Cc2ccc(Cl)cc2)n1/N=C\c1ccc(/C=N/n2c(Cc3ccc(Cl)cc3)n[nH]c2=O)cc1
5. COc1ccc(/C=C/c2n[nH]c3ccc(N4CCOC4=O)cc23)cc1
6. CC(C)NC(=O)OCCN=C1c2ccccc2CCc2ccccc21

Key:
1: 1.11 µM; 2: > 100 µM; 3: > 100 µM; 4: > 100 µM; 5: 12.4 µM; 6: 40.3 µM

// for each molecule in input: emit TGI
1. Nc1nc2nc[nH]c2c(=O)[nH]1
2. COc1ccccc1Cn1nc(OC)c2cc([N+](=O)[O-])ccc21

Key:
1: > 100 µM; 2: > 100 µM

// for each molecule in input: emit TGI
1. COc1nc2sc3c(c2c(=O)n1CCCSSCCCn1c(OC)nc2sc4c(c2c1=O)CCCC4)CCCC3
2. COc1ccc2[nH]c3c(c2c1)COc1ccccc1C3=O
3. CCC(C)C(NC(=O)C1CCCN1C(=O)C(NC(=O)C(C)N)C(C)C)C(N)=O (stereo not drawn)
4. O=C1C(=O)C(Br)(Br)C(Br)=C1Br
5. COC(=O)CCC/C=C\C[C@H]1C=CC(=O)/C1=C/C[C@@H](O)C/C=C\CC(F)(F)F

Key:
1. > 100 µM
2. > 100 µM
3. > 100 µM
4. 29.7 µM
5. 4.77 µM

---

# Test system: XF 498 CNS
# measurement-description: NCI tumour cell line growth inhibition, 48 h
For each of the molecules below, state its TGI.

# count of solved cases: 2
{"columns": ["molecule", "metric-name", "assay-value"],
 "data": [
  ["CC12CCC[C@@](C)(C(=O)OC3OC(CO)C(O)C(O)C3O)[C@H]1CCC13CC4CC(OC4(CO)[C@H]1O)[C@@H]23 (stereo partly drawn)", "TGI", "> 100 µM"],
  ["CC(C)(C)C(=O)C1CC(=O)c2ccccc2C1=O (stereo not drawn)", "TGI", "> 100 µM"]
]}

Proceeding to the next molecule to report its TGI.
Exercise: Report TGI from XF 498 CNS testing of `NC1=N/C(=C2/CCNC(=O)c3[nH]c(Br)cc32)C(=O)N1`
Key: > 100 µM
